- measured.on: Full-length (FL)-PRMT5-MEP50 enzyme complex (Homo sapiens (Human), UniProt O14744)
- Sequence (O14744 whole entry): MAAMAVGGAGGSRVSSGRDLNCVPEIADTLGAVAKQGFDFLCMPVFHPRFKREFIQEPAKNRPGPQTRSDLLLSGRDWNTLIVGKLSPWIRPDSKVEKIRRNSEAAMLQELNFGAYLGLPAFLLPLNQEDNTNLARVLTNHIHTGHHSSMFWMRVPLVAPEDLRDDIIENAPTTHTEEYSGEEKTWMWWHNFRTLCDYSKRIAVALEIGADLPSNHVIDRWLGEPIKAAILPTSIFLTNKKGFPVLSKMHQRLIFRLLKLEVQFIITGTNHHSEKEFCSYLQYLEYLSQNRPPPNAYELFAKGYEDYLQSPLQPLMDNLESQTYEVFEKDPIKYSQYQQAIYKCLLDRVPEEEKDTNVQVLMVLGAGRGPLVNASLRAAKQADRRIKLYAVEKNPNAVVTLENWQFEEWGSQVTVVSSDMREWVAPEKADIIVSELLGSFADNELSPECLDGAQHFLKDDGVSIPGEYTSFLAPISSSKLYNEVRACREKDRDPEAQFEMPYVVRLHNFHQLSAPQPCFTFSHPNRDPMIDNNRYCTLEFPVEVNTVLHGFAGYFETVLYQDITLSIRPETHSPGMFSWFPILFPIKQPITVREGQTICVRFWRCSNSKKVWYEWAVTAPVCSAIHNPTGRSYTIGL
- Sequence (Q9BQA1 whole entry partner): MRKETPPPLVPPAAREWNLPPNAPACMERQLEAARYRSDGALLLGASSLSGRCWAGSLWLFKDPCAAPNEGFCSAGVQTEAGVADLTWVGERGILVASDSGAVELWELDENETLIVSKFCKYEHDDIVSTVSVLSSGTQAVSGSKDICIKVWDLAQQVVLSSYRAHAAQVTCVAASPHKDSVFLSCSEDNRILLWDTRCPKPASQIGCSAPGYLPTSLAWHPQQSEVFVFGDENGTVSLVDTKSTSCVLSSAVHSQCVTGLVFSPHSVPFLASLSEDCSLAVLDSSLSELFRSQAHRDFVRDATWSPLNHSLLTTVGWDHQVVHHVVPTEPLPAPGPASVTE
- assay.text: PRMT5-MEP50 Enzyme Methylation Assay; note: top concentration 100000 nM
- Type: biochemical
- condition.description: read-out: Enzyme Methylation Assay IC50_1
pIC50: −log10 of the molar value.
Recorded pIC50 values for a group of compounds are listed next.
assay.metric: pIC50

CC[C@H]1CN(C[C@@H](O)[C@@H]2Cc3ccccc3CN2)C(=O)c2ccc(-c3ncnn3C)cc21 (single isomer, unassigned) [Example 5]
6.33
CC[C@H]1CN(C[C@@H](O)[C@@H]2Cc3ccccc3CN2)C(=O)c2ccc(C(=O)N3C4CCC3COC4)cc21 (single isomer, unassigned) [Example 15]
8.02
CC[C@H]1CN(C[C@@H](O)[C@@H]2Cc3ccccc3CN2)C(=O)c2ccc(-c3ncnn3C)cc21 (single isomer, unassigned) [Example 8]
7.31
CO[C@@H]1C[C@H]2CC[C@@H](C1)N2C(=O)c1ccc2c(c1)C(C)(C)CN(C[C@@H](O)[C@@H]1Cc3ccccc3CN1)C2=O
9.36

---

- measured.on: UniProtKB O14744
- assay.text: PRMT5 Cell Target Engagement (TE) Assay
- Type: cell-based
- condition.description: MCF-7 cells, treated 3 days, nuclear SDMA by high content imaging; top concentration 10000 nM; read-out: TE Assay EC50
- Procedure: PRMT5 Cell Target Engagement (TE) Assay The PRMT5 TE assay is a biomarker assay for identifying compounds that inhibit symmetric dimethylation of arginine (SDMA) of PRMT5 substrates. […] Each well of a BD falcon collagen coated black/clear bottom 384-well plate was seeded with 4000 MCF-7 cells and allowed to attach for 5 hours. […] IC50 values were determined by 4 parameters robust fit of percent fluorescence units vs. (Log10) compound concentrations.
assay.metric: EC50 (nM)

CC1(C)CN(C[C@@H](O)[C@@H]2Cc3ccccc3CN2)C(=O)c2ccc(N3C(=O)C4CCC3CC4)cc21
74.4
CC1(C)CN(C[C@H](O)[C@@H]2Cc3ccccc3CN2)C(=O)c2ccc(C(=O)N3C4CCC3COC4)cc21
153
CC[C@H]1CN(C[C@@H](O)[C@@H]2Cc3ccccc3CN2)C(=O)c2ccc(C(=O)N3C4CCC3COC4)cc21 (single isomer, unassigned) [Example 15]
120
CC[C@H]1CN(C[C@@H](O)[C@@H]2Cc3ccccc3CN2)C(=O)c2ccc(C(=O)N3C4CCC3COC4)cc21 (single isomer, unassigned) [Example 16]
829
CO[C@@H]1C[C@H]2CC[C@@H](C1)N2C(=O)c1ccc2c(c1)C(C)(C)CN(C[C@H](O)[C@@H]1Cc3ccccc3CN1)C2=O
4630
CC1(C)CN(C[C@@H](O)[C@@H]2Cc3ccccc3CN2)C(=O)c2ccc(Br)cc21
200
CC1(C)CN(C[C@@H](O)[C@@H]2Cc3ccccc3CN2)C(=O)c2ccc(-c3ncnn3C3CC3)cc21
29.5
CC1(C)CN(C[C@H](O)[C@@H]2Cc3ccccc3CN2)C(=O)c2ccc(C(=O)N3[C@@H]4CC[C@H]3C[C@@H](O)C4)cc21
5280
CC[C@H]1CN(C[C@@H](O)[C@@H]2Cc3ccccc3CN2)C(=O)c2ccc(-c3ncnn3C)cc21 (single isomer, unassigned) [Example 7]
143
CC[C@H]1CN(C[C@@H](O)[C@@H]2Cc3ccccc3CN2)C(=O)c2ccc(Br)cc21 (single isomer, unassigned) [Example 1]
2860
CC[C@H]1CN(C[C@@H](O)[C@@H]2Cc3ccccc3CN2)C(=O)c2ccc(Br)cc21 (single isomer, unassigned) [Example 2]
213
CC[C@H]1CN(C[C@@H](O)[C@@H]2Cc3ccccc3CN2)C(=O)c2ccc(-c3ncnn3C)cc21 (single isomer, unassigned) [Example 6]
1440
CC[C@H]1CN(C[C@@H](O)[C@@H]2Cc3ccccc3CN2)C(=O)c2ccc(-c3ncnn3C)cc21 (single isomer, unassigned) [Example 8]
7680
CCC1CN(C[C@@H](O)[C@@H]2Cc3ccccc3CN2)C(=O)c2ccc(-c3ncnn3C3CC3)cc21 (single isomer, unassigned)
22.6
CC1(C)CN(C[C@@H](O)[C@@H]2Cc3ccccc3CN2)C(=O)c2ccc(C(=O)N3C4COC5C4OCC53)cc21
18.6
